Recorded values, source the supplement of paper PMC10567573.

B1: CD69 (parent)
chain: FVAENSSLHPESGQENDATSPHFS

- Variants of: B1
- test-protocol: protein stability index of a GFP-peptide fusion (GPS, HEK-293T) (PSI 1-6); higher = more stable;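 further: lentivirally expressed fusions sorted by FACS into six bins by GFP to DsRed ratio, PSI derived from sequencing read proportions per bin multiplied by bin number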
- experimental-parameters: c terminus: a fixed tail appended
Parameter protein stability index: see the listing below.

mutant-designation	protein stability index
Q14I	3.04
L8M	3.06
A3D	2.95
P21F	2.91
S7W	3.07
A3K	2.95
A3H	3.03
S6H	3.01
